Target: CaSho1
Test: SPOT peptide array binding signal intensity (averaged, normalized) (arbitrary units (background-subtracted, floor 0; scale differs between SH3 domains)); higher = stronger binding of the SH3 domain to the peptide
As shown below, each of these binders has a reported SPOT peptide array binding signal intensity value.
Give the value as a plain number.

In the examples that follow, each entry is paired with its recorded SPOT peptide array binding signal intensity.
>>> recorded_measurement("LPMNIQPDLPPRKIM")
799
>>> recorded_measurement("RVRKTHVPASKRPSG")
89

As a next step, examine the binder that follows.
Exercise: Could you share which SPOT peptide array binding signal intensity value was measured for LPPPPPPPPPPPLPQ ?
Solution: 4.5
